Cited source: PubChem BioAssay (NCI)

Tested on: HOP-92 NSCLC
Assay: NCI tumour cell line growth inhibition, 48 h; in the data active = GI50 below about 0.43 µM; inactive = the rest
Reply using exactly one outcome from active, inactive

| structure-as-smiles | cat |
| --- | --- |
| CN1CCN(CCCOc2ccc3nc(Nc4ccc(Cl)c(C(F)(F)F)c4)ccc3c2)CC1 | inactive |
| CN1C/C=C\CCOc2cccc(c2)-c2ccnc(n2)Nc2cccc(c2)C1 | active |
| Clc1ccc(C2=Nn3c(COc4ccccc4Cl)nnc3SC2)c(Cl)c1 | inactive |

I would be grateful if you could indicate the recorded call for `COc1ccc(Cn2cc3c(c2-c2ccccc2)CC(C)(C)c2cnoc2-3)cc1` .
inactive

I would be grateful if you could indicate the recorded call for `C=C1C(=O)O[C@H]2[C@H]1CC/C(COC(=O)C(=O)c1cn(Cc3ccccc3)c3ccccc13)=C\CC[C@@]1(C)O[C@@H]21` .
inactive
